target: T1, Fel d1 (B-A)-mmH (cat (Felis domesticus)); assay: SPR, mAb captured, Fel d1 (B-A)-mmH injected, 25 C;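 also: rate constants obtained by fitting sensorgrams to a one-to-one binding model, Kd computed as koff over kon, half-life derived from koff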
T1 construct: Expressed in CHO cells; also called rFel d1.mmH; rFel d1-mmH
T1 sequence (chain, as listed by the source limits assumed): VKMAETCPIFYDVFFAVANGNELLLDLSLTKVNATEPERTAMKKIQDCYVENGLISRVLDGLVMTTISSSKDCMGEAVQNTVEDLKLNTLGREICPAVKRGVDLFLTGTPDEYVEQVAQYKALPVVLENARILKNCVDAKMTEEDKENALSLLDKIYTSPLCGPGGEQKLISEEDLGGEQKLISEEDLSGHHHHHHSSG
pKd: −log10 of the molar value.
Classification field: enter met for pKd values not below 9, not met for values below it.

Example cases with answers are listed next.
// inclusive: pKd at least 9? input: H1M1241N (antibody, V domains shown, chimeric, human variable domains with mouse Fc (prefix H1M)) VH: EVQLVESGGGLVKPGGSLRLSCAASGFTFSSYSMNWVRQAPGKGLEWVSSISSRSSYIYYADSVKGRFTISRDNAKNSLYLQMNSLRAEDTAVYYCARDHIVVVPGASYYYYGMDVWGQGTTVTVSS VL: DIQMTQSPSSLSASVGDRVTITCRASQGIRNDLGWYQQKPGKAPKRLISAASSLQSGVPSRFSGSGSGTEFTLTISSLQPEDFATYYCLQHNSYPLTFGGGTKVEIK met

// inclusive: pKd at least 9? input: H4H1616N (antibody, human IgG4, V domains shown, human IgG4 Fc (prefix H4H)) VH: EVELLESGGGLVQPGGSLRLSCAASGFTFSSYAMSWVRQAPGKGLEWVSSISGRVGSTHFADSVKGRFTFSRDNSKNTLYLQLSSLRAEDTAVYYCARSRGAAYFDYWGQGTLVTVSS VL: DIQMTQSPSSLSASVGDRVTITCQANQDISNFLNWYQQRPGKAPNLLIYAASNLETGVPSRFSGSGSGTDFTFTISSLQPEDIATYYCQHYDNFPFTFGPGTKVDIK not met

// inclusive: pKd at least 9? input: H4H1232N (antibody, human IgG4, V domains shown, human IgG4 Fc (prefix H4H); also called REGN1908) VH: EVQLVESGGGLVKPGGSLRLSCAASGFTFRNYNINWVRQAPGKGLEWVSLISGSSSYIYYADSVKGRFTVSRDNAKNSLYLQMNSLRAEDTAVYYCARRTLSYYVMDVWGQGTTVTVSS VL: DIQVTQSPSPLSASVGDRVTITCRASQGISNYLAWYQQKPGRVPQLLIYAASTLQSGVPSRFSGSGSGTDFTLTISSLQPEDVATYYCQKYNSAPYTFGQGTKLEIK met

Okay, next one:
// inclusive: pKd at least 9? input: H4H2606B (antibody, human IgG4, V domains shown, human IgG4 Fc (prefix H4H)) VH: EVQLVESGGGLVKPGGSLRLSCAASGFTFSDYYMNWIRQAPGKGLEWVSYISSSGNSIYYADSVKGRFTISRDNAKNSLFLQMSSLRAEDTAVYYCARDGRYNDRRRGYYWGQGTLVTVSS VL: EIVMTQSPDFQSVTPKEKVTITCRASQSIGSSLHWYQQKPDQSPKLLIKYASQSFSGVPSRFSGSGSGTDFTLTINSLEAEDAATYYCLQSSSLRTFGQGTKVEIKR met
